# Tested on: HS 578T breast
# testProtocol: NCI-60 one-dose screen, 48 h (100 = growth as untreated, 0 = no growth, -100 = all killed)
# conditionContext: 10 µM unless noted
About 83,000 compounds went through this panel and 20% of them were active in at least one assay; those are over-represented in the sample as a whole.
Attribute: growth
observable: growth (%)

>>> print(df.to_string())
                                   compound  measuredresult
0         CCOC(=O)Nc1ccc2nc(N3CCCCCC3)sc2c1            43.7
1  CCN1C(=O)/C(=C/N2N=C(c3ccc(Cl)cc3)CC2c2ccc(OC)cc2)SC1=S (stereo unspecified)            95.2
2              NC(=O)c1ccc[n+](Cc2ccccc2)c1            98.5
3  COC(=O)C(Br)(C(=O)OC)C(Br)C(Br)C(Br)c1ccccc1 (stereo unspecified)             114
4  O=C(Nc1ccc(-n2ccc3c(NC(=O)c4ccccc4)nccc32)cc1)c1ccc(N2CCOCC2)c(C(F)(F)F)c1              50
5  Cc1cccc2nc3ccccc3c(Nc3ccc(NS(C)(=O)=O)cc3)c12            87.8

* * *

# System: PC-3 prostate
# testProtocol: NCI-60 one-dose screen, 48 h (100 = growth as untreated, 0 = no growth, -100 = all killed)
# conditionContext: 10 µM unless noted
About 83,000 compounds went through this panel and 20% of them were active in at least one assay; those are over-represented in the sample as a whole.
# Lookup of reported growth keyed by entry
observable: growth (%)

In [3]: df
Out[3]:
                                   compound  measuredresult
0    COc1ccc(CNc2c3ccccc3nc3ccc(OC)cc23)cc1            5.53
1                   OCCN(CCO)c1ccc2ccccc2c1            83.2
2  CSc1nc(N)c2[nH]c(-c3cc4ccccc4[nH]c3=O)nc2n1            78.7
3  O=C1OCC2=C1C(c1ccccc1)c1cc3c(cc1N2CCO)OCO3 (stereo unspecified)            24.5
4  COc1cccc(/C=N\Nc2ccc([N+](=O)[O-])cn2)c1O            97.5
5                Cc1ccc(Nc2cccc3ccccc23)cc1            73.9

* * *

growth: recorded values
# Test system: SK-MEL-2 melanoma
# testProtocol: NCI-60 one-dose screen, 48 h (100 = growth as untreated, 0 = no growth, -100 = all killed)
# conditionContext: 10 µM unless noted
Compounds without any hit were thinned out: in the full panel of roughly 83,000, 20% have a hit.
observable: growth (%)

molecule	targetSystem	measuredResult
COc1ccc(C(=O)OC2C(OC3C(O)COC(O[C@H]4C[C@H]5[C@@H]6CC=C7C[C@@H](O)CC[C@]7(C)[C@H]6CC[C@]5(C)[C@H]4[C@H](C)C(=O)CCC(C)C)C3OC(C)=O)OCC(O)C2O)cc1 (some centres undefined)	SK-MEL-2 melanoma	-52
CC(=O)NC1C(O[C@H]2C[C@H]3[C@@H]4CC=C5C[C@@H](O)CC[C@]5(C)[C@H]4CC[C@]3(C)[C@H]2[C@H](C)C(=O)CCC(C)C)OCC(O)C1O (some centres undefined)	SK-MEL-2 melanoma	-15.9
COc1cc(Cl)cc(-c2nn(C(=O)NCCN3CCOCC3)cc2-c2ccncc2)c1	SK-MEL-2 melanoma	78.3
O=C1/C(=C/c2ccccc2)SC(=Nc2ccccc2)N1Nc1ccccc1	SK-MEL-2 melanoma	-25.2

* * *

# System: NCI-H226 lung
# testProtocol: NCI-60 one-dose screen, 48 h (100 = growth as untreated, 0 = no growth, -100 = all killed)
# conditionContext: 10 µM unless noted
The panel holds about 83,000 compounds, 20% with a hit somewhere; the sample as a whole holds those more often.
Each entry below carries its reported growth.
observable: growth (%)

>>> print(df.to_string())
                                   compound  unittag  measuredresult
0  CN1C(=O)C(C2=NNC(c3ccccc3C(=O)O)C2)C(=O)N(C)C1=O (stereo not given)        %            99.8
1  O=C(CSc1nnc(Cc2ccccc2Nc2c(Cl)cccc2Cl)n1-c1ccccc1)N1N=C(c2ccc3ccccc3c2)CC1c1ccc(Cl)cc1 (stereo not given)        %            98.8
2  COc1ccccc1CNCCCN1C(=O)c2ccc3c4c(ccc(c24)C1=O)C(=O)N(CCCNCCCN)C3=O        %            38.7
3  Cc1ccc(NC(=O)c2sc3nc4c(cc3c2N)C(=O)CCC4)cc1Cl        %             102
4  COc1ccc2nc3cc(Cl)ccc3c(NC(=O)CSc3ccc(Cl)cc3)c2c1        %           -44.4

* * *

# growth values compiled below
# Tested on: NCI-H23 lung
# testProtocol: NCI-60 one-dose screen, 48 h (100 = growth as untreated, 0 = no growth, -100 = all killed)
# conditionContext: 10 µM unless noted
# Procedure: Growth inhibition of the NCI-H23 human Non-Small Cell Lung tumor cell line is measured as a screen for anti-cancer activity. Cells are grown in 96 well plates and exposed to the test compound for 48 hours. Compounds are tested at a single concentration, which is 10^-5 M for most compounds. The reported endpoint is percent growth (GI% or GIPRCNT), where numbers from 0 - 100% represent growth inhibition, and numbers from -100% - 0 represent cell death. […]
This is part of a sample that, as a whole, favours compounds with a hit. Of some 83,000 tested, about 20% had one in any assay.
observable: growth (%)

                                   molecule  unittag  measuredresult
0  CCOC(=O)C1C(=O)C=C(c2cc(OC)c(OC)c(OC)c2)CC1c1sc(N(C)Cc2ccccc2)nc1Cl (centres undefined)        %            87.3
1  C=C1C(=O)O[C@H]2[C@H]1CC/C(COC(=O)N[C@@H](Cc1c[nH]c3ccccc13)C(=O)OC)=C\CC[C@@]1(C)O[C@@H]21        %            68.5
2  S=C(Nc1ccc(Cl)cc1)Nc1ccc(Cl)cc1 (tested in a mixture with another compound)        %            1.65
3  CNC(=O)c1c(NC(=O)c2cccc(C(F)(F)F)c2)sc2c1CCC(=O)C2        %           -1.79

* * *

# System: HCT-116 colon
# testProtocol: NCI-60 one-dose screen, 48 h (100 = growth as untreated, 0 = no growth, -100 = all killed)
# conditionContext: 10 µM unless noted
This is part of a sample that, as a whole, favours compounds with a hit. Of some 83,000 tested, about 20% had one in any assay.
Think of 90% as a floor: if growth stands on it or above, it is 1 (yes); beneath it, 0 (no).

>>> print(df.to_string())
                                    molecule    label
 0            CCOC(=O)c1cc(C(=O)OCC)c(C)nc1C  1 (yes)
 1         Cc1cc(O)ccc1Sc1ccccc1[N+](=O)[O-]  1 (yes)
 2  O=C1CCCN1C1CCN2CCCc3cccc1c32 (centres undefined)  1 (yes)
 3  c1ccc2c(N=NSc3ncnc4nc[nH]c34)c3ccccc3nc2c1   0 (no)
 4  S=C(Nc1ccc(Cl)cc1)Nc1ccc(Cl)cc1 (tested in a mixture with another compound)   0 (no)
 5  COc1ccc(-c2cc(C(=O)Nc3ccc(C)cc3)nc3[nH]c(=O)sc23)cc1   0 (no)
 6  CCN1C(=O)N(CC)C2C1NC(=O)N2/N=C/C=C/c1ccccc1 (centres undefined)   0 (no)
 7  CCCCOc1nc2ccccc2cc1/C=C/c1cc(/C=C/c2cc3ccccc3nc2OCCCC)n(-c2ccccc2)n1  1 (yes)
 8  CCCCCCCCCCCCNC(=O)N[C@H](C(=O)N[C@H]1/C=C/OCCNC(=O)/C=C/[C@H](C(C)C)NC1=O)C(C)C   0 (no)
 9  COc1ccc(NC(=O)c2sc3c(=O)[nH]c(C(F)(F)F)nc3c2C)cc1  1 (yes)
10  NS(=O)(=O)c1ccc(CCn2c(SCC(=O)N/N=C/c3cc4ccccc4[nH]3)nc3ccccc3c2=O)cc1   0 (no)
11      O=S(=O)(Cc1ccc(Cl)cc1Cl)c1ccc(Cl)cc1   0 (no)
12  CCNC(=O)c1ccc2c(c1)nc(-c1ccc(Cl)cc1)n2-c1cc(C(C)(C)C)[nH]n1   0 (no)
13  C=C1C(=O)O[C@H]2[C@H]1CC/C(COC(=O)N[C@@H](Cc1c[nH]c3ccccc13)C(=O)OC)=C\CC[C@@]1(C)O[C@@H]21   0 (no)
14  COc1cc(NCC(O)CN(CC(C)C)CC(C)C)c2ncccc2c1 (centres undefined)   0 (no)
15  CNC1=C([N+](=O)[O-])C(c2ccccc2O)C(C#N)=C(c2cccs2)O1 (centres undefined)  1 (yes)
